- System: U-251
- ASSAY_PROTOCOL: NCI tumour cell line growth inhibition, 48 h
Active and inactive are the calls of the source. No stated cut-off is given here; in the data, active = GI50 up to about 1.1 µM and inactive = higher.
VALUE_KIND: GI50

The molecule listed as N=C(N)NC(=N)Nc1ccc(S(N)(=O)=O)cc1 has a reported GI50 of > 100 µM (inactive)

The molecule listed as Cc1ccc(C2NC(=O)c3ccccc3N2)s1 (stereo unspecified) has a reported GI50 of 4.6 µM (inactive)

The molecule listed as O=C(/C=C/c1ccccc1O)c1cccnc1 has a reported GI50 of > 100 µM (inactive)

The molecule listed as CC1=CC(=O)/C(=C/NC(=S)NCCc2ccccc2)C(=O)O1 has a reported GI50 of > 100 µM (inactive)

The molecule listed as C/C=C/C=N/N(c1nnc(-c2ccccc2)c(-c2ccccc2)n1)S(=O)(=O)c1ccc(C)cc1 has a reported GI50 of 4.04 µM (inactive)

The molecule listed as CCN1CCC(O)(c2ccc(OC)cc2)C(C(=O)c2ccc(OC)cc2)C1 (stereo unspecified) has a reported GI50 of 16.7 µM (inactive)

###

- Tested on: IGROV-1
- ASSAY_PROTOCOL: NCI tumour cell line growth inhibition, 48 h
Active and inactive are the calls of the source. No stated cut-off is given here; in the data, active = GI50 up to about 1.1 µM and inactive = higher.
Please provide measured GI50 for the entries that follow.

The compound listed as C=C(C)C1CC[C@]2(C(=O)O)CCC3(C)[C@H](CCC4[C@@]5(C)CC[C@H](OC6OC(CO)C(O)C6OC6OC(C)C(O)C(O)C6O)[C@@](C)(CO)C5CC[C@]43C)C12 (stereo partly drawn) has a reported GI50 of > 100 µM (inactive)

The compound listed as CSC1=C(C(=O)N(COCC[Si](C)(C)C)c2ccccc2Br)CCC(C(C)(C)C)C1 (stereo not drawn) has a reported GI50 of 23.2 µM (inactive)

The compound listed as C/C=C(/C)C(=O)O[C@H]1C(C)=C[C@]23C(=O)[C@@H](C=C(COC(C)=O)[C@@H](O)[C@]12O)[C@H]1[C@@H](C[C@H]3C)[C@@]1(C)OC(=O)/C(C)=C\C has a reported GI50 of 3.2 µM (inactive)

The compound listed as CC(C)(C)c1cc(C(=O)/C=C/c2ccc(C(=O)O)cc2)cc(C(C)(C)C)c1 has a reported GI50 of 3.8 µM (inactive)

The compound listed as C[N+](C)(C)CC(=O)N/N=C(\Cc1nc2ccc([N+](=O)[O-])cc2nc1O)C(=O)Nc1nc2ccc([N+](=O)[O-])cc2s1 has a reported GI50 of 23.5 µM (inactive)

The compound listed as CCOC(=O)/C1=C(\C)N(c2ccc(C)cc2)C(=O)c2ccccc2C(=O)c2c(OC(C)=O)ccc(OC(C)=O)c21 has a reported GI50 of 4.01 µM (inactive)

The compound listed as NC(=O)c1ccc(S(=O)(=NS(=O)(=O)c2ccccc2)c2ccc(C(N)=O)cc2)cc1 has a reported GI50 of > 100 µM (inactive)

The compound listed as O=C(/C=C/c1ccccc1)c1ccc(Cl)cc1Cl has a reported GI50 of 18.5 µM (inactive)

###

- Test system: HOP-62
- ASSAY_PROTOCOL: NCI tumour cell line growth inhibition, 48 h
Activity calls are given as the source filed them. Cut-off read from the data, not from the text of the source: active = GI50 up to about 1.1 µM and inactive = higher. Square brackets hold non-standard residues; d marks the D form. Peptide text beside a SMILES is read from it. pGlu = O=C1CC[CH](C(=O)O)N1
VALUE_KIND: GI50

The molecule listed as Cc1cc(S(=O)(=O)Nc2nc(N)nc(N3CCOCC3)n2)c(SCC(=O)O)cc1Cl has a reported GI50 of > 10 µM (inactive)

The molecule listed as C[C@@]1(c2ccccc2)O[C@@H]2C[C@H]3[C@@H]4CCC5=CC(=O)C=C[C@]5(C)[C@@]4(F)[C@@H](O)C[C@]3(C)[C@]2(C(=O)CO)O1 [AMCINAFIDE] has a reported GI50 of 15.6 µM (inactive)

The molecule listed as CC(NC(=O)C(Cc1c[nH]cn1)NC(=O)C1CCC(=O)N1)C(N)=O (stereo not drawn) ([pGlu]-His-Ala-NH2; configuration not given here) has a reported GI50 of > 100 µM (inactive)

The molecule listed as CCOC(=O)c1c(C(F)(F)F)oc2c1ccc1nc3nonc3nc12 has a reported GI50 of 13.8 µM (inactive)

The molecule listed as O=C(O)CN1CCNCCN(CC(=O)O)CCNCC1 has a reported GI50 of > 100 µM (inactive)

The molecule listed as COc1cc(COC(=O)NC(Cc2cccs2)C(=O)O)c([N+](=O)[O-])cc1OC (configuration not stated) has a reported GI50 of > 100 µM (inactive)

The molecule listed as CCOC(=O)/C=C(/C(=O)OCC)n1ccc(=O)[nH]c1=O has a reported GI50 of 19.6 µM (inactive)

###

Please provide measured GI50 for the entries that follow.
- Tested on: NCI-H23
- ASSAY_PROTOCOL: NCI tumour cell line growth inhibition, 48 h
The source made the active and inactive calls. No stated cut-off is given here; in the data, active = GI50 up to about 1.1 µM and inactive = higher.

The compound listed as Nc1c(-c2nc3ccccc3s2)[n+]([O-])c2ccccc2[n+]1[O-] has a reported GI50 of 20 µM (inactive)

The compound listed as COc1cccc(Nc2nc(-c3cccs3)nc3ccc(Br)cc23)c1 has a reported GI50 of 46 µM (inactive)

The compound listed as CC1=C(C(=O)Nc2cccc(Cl)c2)C(c2ccc([N+](=O)[O-])cc2)C(C(=O)Nc2cccc(Cl)c2)=C(C)N1 has a reported GI50 of 21.3 µM (inactive)

The compound listed as COc1ccc2c(c1)CCC(CN1CCN(CCOC(c3ccccc3)c3ccccc3)CC1)C2O (centres undefined) has a reported GI50 of 15.1 µM (inactive)

The compound listed as C=C(C)C1CC[C@]2(C(=O)O)CCC3(C)[C@H](CCC4[C@@]5(C)CC[C@H](OC6OC(CO)C(O)C6OC6OC(C)C(O)C(O)C6O)[C@@](C)(CO)C5CC[C@]43C)C12 (some centres undefined) has a reported GI50 of > 100 µM (inactive)

The compound listed as CCCCCCCCCC/C=C/C=O has a reported GI50 of > 100 µM (inactive)

The compound listed as Cc1cc(C)c(N[S+]([O-])c2cccc(Cl)c2)c(C)c1 (centres undefined) has a reported GI50 of > 100 µM (inactive)

The compound listed as Nc1nc(Nc2ccccc2)sc1C(=O)c1c[nH]c2ccccc12 has a reported GI50 of 17.5 µM (inactive)

The compound listed as CN1CCc2c(sc3ncn(N)c(=N)c23)C1 has a reported GI50 of > 100 µM (inactive)

###

- Test system: SK-MEL-28
- ASSAY_PROTOCOL: NCI tumour cell line growth inhibition, 48 h
Activity calls are given as the source filed them. No stated cut-off is given here; in the data, active = GI50 up to about 1.1 µM and inactive = higher.
VALUE_KIND: GI50

The compound listed as CN(C(=O)C1CC1)C1C2CN3CCC(O2)C13 (configuration not stated) has a reported GI50 of > 100 µM (inactive)

The compound listed as O=C(CCC=C(S(=O)(=O)c1ccccc1)S(=O)(=O)c1ccccc1)c1ccccc1 has a reported GI50 of 12.1 µM (inactive)

The compound listed as COc1cc(C2NCCC(c3ccccc3)(c3ccccc3)N2)cc(OC)c1OC (configuration not stated) has a reported GI50 of 17 µM (inactive)

The compound listed as C/C(=N/NC(=O)c1ccccc1O)c1ccc(/C(C)=N\NC(=O)c2ccccc2O)c2nc3cc(C)c(C)cc3nc12 has a reported GI50 of > 100 µM (inactive)

The compound listed as COc1cc(OC)c2nc(C)c3c(c2c1)OCC3 has a reported GI50 of > 100 µM (inactive)

The compound listed as CC(C)=C1CCC(CN(C)C)C1=O (configuration not stated) has a reported GI50 of 18.2 µM (inactive)

The compound listed as Cn1c2c(c3ccccc31)CCN(CCCCN1CCN(c3cccc(Cl)c3)CC1)C2=O has a reported GI50 of 6.07 µM (inactive)

The compound listed as COc1ccc2c(c1)CCC(CN1CCN(CCOC(c3ccccc3)c3ccccc3)CC1)C2O (configuration not stated) has a reported GI50 of 16.5 µM (inactive)

The compound listed as COc1ccc(C(C)c2cc3c(cc2OC)OCO3)cc1 (configuration not stated) has a reported GI50 of 2.33 µM (inactive)

The compound listed as NC(=O)c1ccc(S(=O)(=NS(=O)(=O)c2ccccc2)c2ccc(C(N)=O)cc2)cc1 has a reported GI50 of > 100 µM (inactive)

The compound listed as c1ccc(C(NCC2CCO2)(c2ccccc2)c2ccccc2)cc1 (configuration not stated) has a reported GI50 of 28.6 µM (inactive)

The compound listed as COc1cc(C2c3cc(OC)c(OC)c(O)c3C(=O)C3CCC(=O)N32)cc(OC)c1OC (configuration not stated) has a reported GI50 of > 100 µM (inactive)

The compound listed as CC(C)NCC(O)c1ccc(O)c2ncccc12 (configuration not stated) has a reported GI50 of > 100 µM (inactive)

The compound listed as BrCC[N+]12CCCN1CCC2 has a reported GI50 of 10.7 µM (inactive)

The compound listed as CCCCCCCCCCCC(=O)OCCOCCOCCOCCOCCOC(=O)CCCCCCCCCCC has a reported GI50 of > 100 µM (inactive)

The compound listed as CCOC(=O)C(=O)Nc1ccccc1CC has a reported GI50 of > 100 µM (inactive)

The compound listed as O=C(/C=c1\oc(=O)/c(=C/C(=O)c2ccc(Cl)cc2)oc1=O)c1ccc(Cl)cc1 has a reported GI50 of > 100 µM (inactive)

The compound listed as CC(C)(CN1CCCCC1)C(/C=C/c1ccc(Cl)c(Cl)c1)=N\NC(=O)N/N=C(/C=C/c1ccc(Cl)c(Cl)c1)C(C)(C)CN1CCCCC1 has a reported GI50 of 1.72 µM (inactive)

The compound listed as COc1cc2nc(-c3c(F)cccc3F)n(Cc3c(F)cccc3F)c2cc1Cc1c(F)cccc1F has a reported GI50 of 0.35 µM (active)

The compound listed as CCCCN(CC)c1nc(C)nc2c1c(C)c(C)n2-c1c(C)cc(C)cc1C has a reported GI50 of 15.8 µM (inactive)

The compound listed as NC(Cc1nnn[nH]1)C(=O)O (configuration not stated) has a reported GI50 of > 100 µM (inactive)

The compound listed as Cc1c(CCCl)c(N=P(c2ccccc2)(c2ccccc2)c2ccccc2)n2c(nc3ccccc32)c1C#N has a reported GI50 of > 10 µM (inactive)

The compound listed as CCCC1=NC(C(F)(F)F)(C(F)(F)F)N=C(N2CCOCC2)O1 has a reported GI50 of > 100 µM (inactive)

The compound listed as NC(=S)N/N=C/c1c[nH]c2ccccc12 has a reported GI50 of > 100 µM (inactive)

The compound listed as Ic1cccc(/C=C/CN2CCN(CCOC(c3ccccc3)c3ccccc3)CC2)c1 has a reported GI50 of 20.8 µM (inactive)

The compound listed as CCOC(=O)/C1=C(\C)N(c2ccc(C)cc2)C(=O)c2ccccc2C(=O)c2c(OC(C)=O)ccc(OC(C)=O)c21 has a reported GI50 of < 0.01 µM (active)

The compound listed as N#CCC(=O)N/N=C1/C(=O)N(c2ccc(Cl)cc2)C(=O)C(=O)C1c1nc2ccccc2s1 (configuration not stated) has a reported GI50 of > 100 µM (inactive)

The compound listed as COc1cc(/C=N/c2nc3cc4sc(/N=C/c5cc(OC)c(OC)c(OC)c5)nc4cc3s2)cc(OC)c1OC has a reported GI50 of 21.7 µM (inactive)

The compound listed as COC(=O)[C@@H](NC(=O)N(Cc1ccccc1)C[C@H](CC(C)C)NC(=O)[C@@H](NC(=O)OC(C)(C)C)C(C)C)C(C)C has a reported GI50 of > 100 µM (inactive)

The compound listed as Cc1c2cccc-2c(OCCO)cc2c1[nH]c1ccccc12 has a reported GI50 of 4.49 µM (inactive)

The compound listed as CCCCCCCC/C=C\CCCCCCC/C=C1/C[C@](/C=C/C(=O)OC)(CO)OC1=O has a reported GI50 of 2.77 µM (inactive)

The compound listed as C[C@@]1(c2ccccc2)O[C@@H]2C[C@H]3[C@@H]4CCC5=CC(=O)C=C[C@]5(C)[C@@]4(F)[C@@H](O)C[C@]3(C)[C@]2(C(=O)CO)O1 [AMCINAFIDE] has a reported GI50 of 16.3 µM (inactive)

Values from ChEMBL document CHEMBL1201862
